Consider the following sequences; for each one, report its PBM binding z-score.
Test system: RXRa homodimer (NR concentration 180 nM)
ASSAY_EXPLANATION: PBM binding z-score (relative to random genomic background probes); higher = stronger binding; sequences stand for … in GC…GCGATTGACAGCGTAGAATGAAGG

Looking for the measured PBM binding z-score of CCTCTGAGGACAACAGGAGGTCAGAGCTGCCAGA , can you help?
1.78

Next record, please: TCTAGTTGGTCACGGAGGTCACACTCGACGGGTA
4.54

Next record, please: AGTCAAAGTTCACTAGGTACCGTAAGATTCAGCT
3.75

Next record, please: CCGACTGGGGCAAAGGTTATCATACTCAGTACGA
3.11

Next record, please: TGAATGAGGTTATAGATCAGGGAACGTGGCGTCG
2

Next record, please: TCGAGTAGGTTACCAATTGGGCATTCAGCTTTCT
0.205

Next record, please: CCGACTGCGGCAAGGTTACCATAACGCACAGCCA
1.07

Next record, please: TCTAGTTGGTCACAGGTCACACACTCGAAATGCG
3.83

Next record, please: CCTCGGAGGACTGAAGGTCAGAGCTGTCCGCTTT
1.46

Next record, please: ACTTCCGGGTCAACGAGGTTATAGCACGCGTATA
5.76

Next record, please: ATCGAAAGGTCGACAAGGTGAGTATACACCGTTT
4.36

Next record, please: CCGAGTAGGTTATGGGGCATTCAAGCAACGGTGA
0.617

Next record, please: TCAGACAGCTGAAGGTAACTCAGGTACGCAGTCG
0.413

Next record, please: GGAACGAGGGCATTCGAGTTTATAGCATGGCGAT
0.915

Next record, please: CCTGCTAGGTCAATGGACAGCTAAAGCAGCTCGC
1.8

Next record, please: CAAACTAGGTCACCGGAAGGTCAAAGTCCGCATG
6.69

Next record, please: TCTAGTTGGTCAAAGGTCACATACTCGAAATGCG
7.86

Next record, please: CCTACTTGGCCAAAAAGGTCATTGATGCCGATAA
5.15

Next record, please: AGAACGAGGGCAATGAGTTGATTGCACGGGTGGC
0.475

Next record, please: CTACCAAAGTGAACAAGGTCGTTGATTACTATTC
0.996

Next record, please: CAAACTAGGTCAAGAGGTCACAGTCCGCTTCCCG
7.55

Next record, please: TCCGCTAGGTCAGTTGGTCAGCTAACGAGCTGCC
1.01

Next record, please: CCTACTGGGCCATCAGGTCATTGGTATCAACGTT
0.958

Next record, please: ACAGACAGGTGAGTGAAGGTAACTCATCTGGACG
0.146

Next record, please: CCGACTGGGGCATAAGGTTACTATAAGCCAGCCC
1.04

Next record, please: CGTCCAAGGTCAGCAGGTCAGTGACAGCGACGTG
5.26

Next record, please: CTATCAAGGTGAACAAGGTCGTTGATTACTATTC
1.7

Next record, please: AGAACGAGGGCACGCAGAGTTGATAGCAGAGTAG
1.73

Next record, please: CCTAGCAGGACAATCTGGGTCACTCAAGGCTTGA
1.09

Next record, please: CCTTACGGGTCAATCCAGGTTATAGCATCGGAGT
4.31

These measurements were taken from the supplement of paper PMC6555819.
